# Test system: stationary phase B. burgdorferi persisters (strain B31)
# assay summary: NCI compound library screen, SYBR Green I/PI assay (plate reader)
# condition context: 50 μM, seven day old stationary phase culture, 7 days
Starred links: 1 amine or outer side, 2 acyl side, 3 side chain; linkers in the order of their positions; H or OH if unused. Positions of bridges follow the written chain, without caps; N, C: chain ends. Non-standard residues stand in square brackets, D forms with d. Residues, ends and D or L forms follow the SMILES beside them. Chains are numbered I, II in the order given. Actinocin(9to1) = Cc1c2oc3c(C)ccc(C(=O)[*:1])c3nc-2c(C(=O)[*:2])c(N)c1=O; NMeV = CN[C@H](C(=O)O)C(C)C; Sar = CNCC(=O)O
Measured Residual viable cells (SYBR Green I/PI assay) of individual entries
assay metric: Residual viable cells (SYBR Green I/PI assay) (%)

# molecule, uom, data value
records = [
    ("Cc1c2oc3c(C)ccc(C(=O)N[C@@H]4C(=O)N[C@H](C(C)C)C(=O)N5CCC[C@H]5C(=O)N(C)CC(=O)N(C)[C@@H](C(C)C)C(=O)O[C@@H]4C)c3nc-2c(C(=O)N[C@@H]2C(=O)N[C@H](C(C)C)C(=O)N3CCC[C@H]3C(=O)N(C)CC(=O)N(C)[C@@H](C(C)C)C(=O)O[C@@H]2C)c(N)c1=O [NSC3053, Dactinomycin] (I: T[dV]P[Sar][NMeV] / II: T[dV]P[Sar][NMeV]; ester I:1-I:C, II:1-II:C; linker I:N-II:N via Actinocin(9to1))", "%", 37),
    ("CC[C@@]1(O)C[C@H](O[C@H]2C[C@H](N(C)C)[C@H](O)[C@H](C)O2)c2c(O)c3c(c(O)c2[C@H]1O[C@H]1C[C@H](N(C)C)[C@H](O)[C@H](C)O1)C(=O)c1cccc(O)c1C3=O", "%", 0),
]

====

# Tested on: stationary phase B. burgdorferi persisters (strain B31)
# assay summary: NCI compound library rescreen, epifluorescence microscope counting
# condition context: Borreliella burgdorferi, 168 h, read-out: Residual viable cells (%) 20 μM (epifluorescence microscope counting)
Counter-ions that a name gives are not always drawn.
Attribute: viability at 20 µM

# compound, viability at 20 µM
data = [
    ("CC1OC(CC(=O)O)CC2=C1C(=O)c1c(O)cccc1C2=O (centres unmarked)", "45%"),
    ("C[C@H]1c2cccc(O)c2C(=O)C2=C(O)[C@]3(O)C(=O)C(C(N)=O)=C(O)[C@@H](N(C)C)[C@@H]3[C@@H](O)[C@@H]21", "77%"),
    ("COCCOC1=C(Cl)C(=O)c2c(O)ccc(O)c2C1=O", "50%"),
    ("CCCCCC1=C/C(=C/c2[nH]c(-c3ccc[nH]3)cc2OC)N=C1C", "45%"),
    ("NC(=O)OCC1=C(COC(N)=O)C(=O)c2c(O)ccc(O)c2C1=O", "77%"),
    ("CCCCCCCCCC(=O)N[C@@H](Cc1c[nH]c2ccccc12)C(=O)N[C@H](CC(N)=O)C(=O)N[C@@H](CC(=O)O)C(=O)N[C@@H]1C(=O)NCC(=O)N[C@@H](CCCN)C(=O)N[C@@H](CC(=O)O)C(=O)N[C@H](C)C(=O)N[C@@H](CC(=O)O)C(=O)NCC(=O)N[C@H](CO)C(=O)N[C@@H]([C@H](C)CC(=O)O)C(=O)N[C@@H](CC(=O)c2ccccc2N)C(=O)O[C@@H]1C", "25%"),
    ("COc1cccc2c1C(=O)c1c(O)c3c(c(O)c1C2=O)C[C@@](O)(C(C)=O)C[C@@H]3OC1CC(N(C)C)C(O)C(C)O1 (some centres unmarked) [NSC258812, Dimethyldaunomycin hydrochloride]", "10%"),
    ("CC1(C)S[C@@H]2[C@H](NC(=O)[C@H](N)c3ccc(O)cc3)C(=O)N2[C@H]1C(=O)O", "77%"),
    ("O=C1c2cccc(NCCCNCCO)c2C(=O)c2cccc(NCCCNCCO)c21 [NSC363998, dihydrochloride]", "14%"),
    ("Cc1cc(C(=C2C=CC(=N)C=C2)c2ccc(N)cc2)ccc1N [NSC93739, hydrochloride]", "77%"),
    ("CC1Oc2cc3c(-c4c(O)cc(O)c5c(O)c6c(cc45)OC(C)C(C)C6=O)c(O)cc(O)c3c(O)c2C(=O)C1C (centres unmarked)", "33%"),
]

====

# Tested on: stationary phase B. burgdorferi persisters (strain B31)
# assay summary: SYBR Green I/PI viability assay (plate reader), FDA-approved drug library screen
# condition context: Borreliella burgdorferi, 168 h, read-out: Residual viable cells (regression equation, SYBR Green I/PI assay)

# smiles str, uom, viability at 50 µM
records = [
    ("CCCCCCCCCC(=O)N[C@@H](Cc1c[nH]c2ccccc12)C(=O)N[C@H](CC(N)=O)C(=O)N[C@@H](CC(=O)O)C(=O)N[C@@H]1C(=O)NCC(=O)N[C@@H](CCCN)C(=O)N[C@@H](CC(=O)O)C(=O)N[C@H](C)C(=O)N[C@@H](CC(=O)O)C(=O)NCC(=O)N[C@H](CO)C(=O)N[C@@H]([C@H](C)CC(=O)O)C(=O)N[C@@H](CC(=O)c2ccccc2N)C(=O)O[C@@H]1C", "%", 28),
    ("CN(C)CCn1nnnc1SCC1=C(C(=O)O)N2C(=O)[C@@H](NC(=O)Cc3csc(N)n3)[C@H]2SC1", "%", 43),
    ("CC[C@H]1OC(=O)[C@H](C)[C@@H](O[C@H]2C[C@@](C)(OC)[C@@H](O)[C@H](C)O2)[C@H](C)[C@@H](O[C@@H]2O[C@H](C)C[C@H](N(C)C)[C@H]2O)[C@](C)(O)C[C@@H](C)CN(C)[C@H](C)[C@@H](O)[C@]1(C)O", "%", 80),
    ("CO[C@@]1(NC(=O)CSCC#N)C(=O)N2C(C(=O)O)=C(CSc3nnnn3C)CS[C@@H]21", "%", 43),
]

====

# Tested on: B. burgdorferi (growing, strain B31)
# assay summary: MIC determination, standard microdilution method
# Format: cell-based, Borrelia burgdorferi
# condition context: growing B. burgdorferi
assay metric: MIC

# compound, data value
data = [
    ("CC[C@@]1(O)C[C@H](O[C@H]2C[C@H](N(C)C)[C@H](O)[C@H](C)O2)c2c(cc3c(c2O)C(=O)c2c(O)ccc(O)c2C3=O)[C@H]1C(=O)OC [NSC267229, Pyrromycin]", "0.37 to 0.73 µg/mL"),
    ("CCN(CC)c1ccc2cc3ccc(=[N+](CC)CC)cc-3oc2c1.[Cl-] [NSC44690, Pyronin B]", "1.8 to 3.6 µg/mL"),
]

====

Reported values of viability at 50 µM for individual entries
# Test system: stationary phase B. burgdorferi persisters (strain B31)
# assay summary: SYBR Green I/PI viability assay (plate reader), FDA-approved drug library screen
# condition context: Borreliella burgdorferi, 168 h, read-out: Residual viable cells (regression equation, SYBR Green I/PI assay)

# molecule, viability at 50 µM (%)
records = [
    ("CC(=O)OCC1=C(C(=O)O)N2C(=O)[C@@H](NC(=O)Cc3cccs3)[C@H]2SC1 [Cephalothin]", 40),
    ("CCN1CCN(C(=O)N[C@@H](C(=O)N[C@@H]2C(=O)N3C(C(=O)O)=C(CSc4nnnn4C)CS[C@H]23)c2ccc(O)cc2)C(=O)C1=O [Cefoperazone]", 34),
    ("C=CC1=C(C(=O)O)N2C(=O)[C@@H](NC(=O)/C(=N\\O)c3csc(N)n3)[C@H]2SC1 [Cefdinir]", 48),
    ("CC1(C)S[C@@H]2[C@H](NC(=O)[C@H](C(=O)O)c3ccsc3)C(=O)N2[C@H]1C(=O)O [Ticarcillin]", 46),
    ("CC(C)/N=c1\\cc2n(-c3ccc(Cl)cc3)c3ccccc3nc-2cc1Nc1ccc(Cl)cc1 [Clofazimine]", 32),
    ("CC1(C)S[C@@H]2[C@H](NC(=O)[C@H](N)c3ccc(O)cc3)C(=O)N2[C@H]1C(=O)O [Amoxicillin]", 76),
    ("CO/N=C(\\C(=O)N[C@@H]1C(=O)N2C(C(=O)O)=C(CSc3nnnn3C)CS[C@H]12)c1csc(N)n1 [Cefmenoxime]", 48),
]

====

# System: stationary phase B. burgdorferi persisters (strain B31)
# assay summary: NCI compound library screen, SYBR Green I/PI assay (plate reader)
# condition context: Borreliella burgdorferi, 168 h, read-out: Residual viable cells (%) 20 μM (SYBR Green I/PI assay), 20 μM, seven day old stationary phase, 7 days
Mark each entry y if its viability at 20 µM sits below 40%, and n for all others.

# smiles str, class
data = [
    ("CCCCCC1=C/C(=C/c2[nH]c(-c3ccc[nH]3)cc2OC)N=C1C", "y"),
    ("CC1(C)S[C@@H]2[C@H](NC(=O)[C@H](N)c3ccc(O)cc3)C(=O)N2[C@H]1C(=O)O", "n"),
    ("C[C@H]1c2cccc(O)c2C(=O)C2=C(O)[C@]3(O)C(=O)C(C(N)=O)=C(O)[C@@H](N(C)C)[C@@H]3[C@@H](O)[C@@H]21", "n"),
    ("CCCCCCCCCC(=O)N[C@@H](Cc1c[nH]c2ccccc12)C(=O)N[C@H](CC(N)=O)C(=O)N[C@@H](CC(=O)O)C(=O)N[C@@H]1C(=O)NCC(=O)N[C@@H](CCCN)C(=O)N[C@@H](CC(=O)O)C(=O)N[C@H](C)C(=O)N[C@@H](CC(=O)O)C(=O)NCC(=O)N[C@H](CO)C(=O)N[C@@H]([C@H](C)CC(=O)O)C(=O)N[C@@H](CC(=O)c2ccccc2N)C(=O)O[C@@H]1C", "y"),
]
